Data origin: ChEMBL document CHEMBL1130994

Entries and their measured MIC follow.
- System: Morganella morganii
- assay_summary: Compound was evaluated for inhibitory activity against PR15 Morganella morganii
- Assay type: functional

Sample answers from the record:
| molecule | readout | reported |
| --- | --- | --- |
| N[C@@H](C(=O)N[C@@H]1C(=O)N2C(C(=O)O)=C(C(F)(F)F)CC[C@H]12)c1ccc(O)cc1 | MIC | 16 µM |
| N[C@@H](C(=O)N[C@@H]1C(=O)N2C(C(=O)O)=C(C(F)(F)F)CC[C@H]12)c1ccc(Cl)c(Cl)c1 | MIC | 32 µM |
| N[C@@H](C(=O)N[C@@H]1C(=O)N2C(C(=O)O)=C(C(F)(F)F)CC[C@H]12)c1ccc(O)c(Cl)c1 | MIC | 4 µM |
| N[C@@H](C(=O)N[C@@H]1C(=O)N2C(C(=O)O)=C(C(F)(F)F)CC[C@H]12)c1cccc(Br)c1 | MIC | 16 µM |
| N[C@@H](C(=O)N[C@@H]1C(=O)N2C(C(=O)O)=C(C(F)(F)F)CC[C@H]12)c1ccccc1 | MIC | 32 µM |

So what's the measured MIC for this one? `Nc1ccc([C@@H](N)C(=O)N[C@@H]2C(=O)N3C(C(=O)O)=C(C(F)(F)F)CC[C@H]23)cc1`
8 µM

So what's the measured MIC for this one? `N[C@@H](C(=O)N[C@@H]1C(=O)N2C(C(=O)O)=C(C(F)(F)F)CC[C@H]12)c1ccc(F)cc1`
16 µM
